pIC50: −log10 of the molar value.
The following are reported pIC50 results, target or system Retinal dehydrogenase 2 (Homo sapiens, UniProt O94788).
parameter: pIC50

// known answers, use as guide
compound=Cc1cccc(Cn2c(CN3CCN(C(=O)C(C)C)CC3)nc3ccccc32)c1 reported=5.56
compound=O=C(C1CC1)N1CCN(Cc2nc3ccccc3n2Cc2cccc(C(F)(F)F)c2)CC1 reported=5.86
compound=O=C(C1CC1)N1CCN(Cc2nc3ccccc3n2Cc2ccccc2Cl)CC1 reported=5.71

(P) CCC(=O)N1CCN(Cc2nc3ccccc3n2Cc2cccc(C)c2)CC1
(Q) O=C(C1CC1)N1CCN(Cc2nc3ccccc3n2Cc2cccc(Cl)c2)CC1
stdin: I would appreciate it if you could say which entry, P or Q , has the lower pIC50 value. Pick one; state its label.
stdout: P
(P: 5.68, Q: 6.05)

Source listed as ChEMBL document CHEMBL4823307.
